- tgt: HLA-B*08:02
- assay procedure: IEDB peptide-MHC binding, purified MHC/direct/fluorescence; filed as Kd, often an IC50 or EC50 that approximates it; bounds were set here for any values at or beyond the usual limits of such assays
- run conditions: source organism: West Nile virus strain PTRoxo
test readout: Kd (µM)
Give the value, in units of µM, as a plain number.

Exam item: # input sequence: HSRRSRRSL ; wanted: its Kd
Marked response: 5.67

----------
- tgt: HLA-B*40:01
- assay procedure: IEDB peptide-MHC binding, purified MHC/direct/fluorescence; filed as Kd, often an IC50 or EC50 that approximates it; bounds were set here for any values at or beyond the usual limits of such assays
- run conditions: source organism: Brucella abortus 2308
test readout: Kd

Exam item: Which Kd reading was recorded for the sequence TPPVDRMAV ?
Marked response: ≥ 20 µM

----------
- tgt: HLA-B*44:02
- assay procedure: IEDB peptide-MHC binding, purified MHC/competitive/radioactivity; filed as Kd, often an IC50 or EC50 that approximates it; bounds were set here for any values at or beyond the usual limits of such assays
- run conditions: source organism: SARS coronavirus Tor2
test readout: Kd (nM)
Provide only the numeric value, understood in nM.

Exam item: Fill in the recorded Kd for this sequence, with HLA-B*44:02 as test system: SEVAVLYQDV
Marked response: 1120

Exam item: Lookup REAACCHLA
Marked response: 3030

Exam item: Cool, now QEAYYRARAG
Marked response: 954

Exam item: Subsequent entry: WEVGKPRPPL
Marked response: 5920

----------
Provide the reported pKd of each item.
- tgt: HLA-B*27:03
- assay procedure: IEDB peptide-MHC binding, purified MHC/competitive/fluorescence; filed as Kd, often an IC50 or EC50 that approximates it; bounds were set here for any values at or beyond the usual limits of such assays
- run conditions: source organism: Orthohantavirus tulaense
pKd: −log10 of the molar value.

Exam item: I'd like to know its pKd. The sequence in question is FMFNELLAL
Marked response: ≤ 4.70

Exam item: Here is the next sequence: FGAAVSLLF
Marked response: ≤ 4.70

----------
- tgt: HLA-A*33:01
- assay procedure: IEDB peptide-MHC binding, purified MHC/competitive/radioactivity; filed as Kd, often an IC50 or EC50 that approximates it; bounds were set here for any values at or beyond the usual limits of such assays
- run conditions: source organism: Mammarenavirus lassaense
test readout: Kd (µM)
Value expressed in µM; do not type the unit.

Exam item: Could you share which Kd value was measured for TLGSFTWFPH ?
Marked response: 13.4

----------
- tgt: HLA-A*26:01
- assay procedure: IEDB peptide-MHC binding, purified MHC/competitive/fluorescence; filed as Kd, often an IC50 or EC50 that approximates it; bounds were set here for any values at or beyond the usual limits of such assays
- run conditions: source organism: Orthohantavirus tulaense
test readout: Kd

Exam item: I'd like to know its Kd. The sequence in question is FMFNELLAL
Marked response: ≥ 20 µM

Exam item: Repeat for the following sequence: FGAAVSLLF
Marked response: ≥ 20 µM

----------
- tgt: HLA-A*29:02
- assay procedure: IEDB peptide-MHC binding, purified MHC/direct/fluorescence; filed as Kd, often an IC50 or EC50 that approximates it; bounds were set here for any values at or beyond the usual limits of such assays
- run conditions: source organism: Vibrio cholerae V52
test readout: Kd

Exam item: Looking for the measured Kd of EVNAHIHTM , can you help?
Marked response: ≥ 20 µM

Each recorded value in this set is attributed to the Immune Epitope Database (IEDB).
